ENDPOINT: logP
The answer should be a number; do not append a unit.

(Q) Which logP is listed for CC(C)OC(=O)[C@@H](N)Cc1ccc(O)cc1 ?
(A) 0.99

(Q) Requested read-out: logP. Entry: CC(C)(C)OC(=O)[C@@H](N)Cc1ccc(O)c(O)c1
(A) 0.81

(Q) Any idea what its logP is? The molecule is N[C@@H](Cc1ccc(O)c(O)c1)C(=O)OCC1CCCO1 (stereo not given in full)
(A) 0.01

(Q) Need logP, item N[C@@H](Cc1ccccc1)C(=O)OCc1ccccc1
(A) 2.48

(Q) What measured logP goes with COC(=O)[C@@H](N)Cc1ccc(O)cc1 ?
(A) 0.18
